target: Human BCMA (human) (UniProt Q02223); assay: SPR, IgG on chip, huBCMA analyte
MEASURED_PARAMETER: kon (M⁻¹ s⁻¹)
Give the number; M⁻¹ s⁻¹ is assumed, so skip it.

BINDER | kon [M⁻¹ s⁻¹]
C01_Rd4_0.6nM_C09 (antibody, V domains shown, IgG) VH: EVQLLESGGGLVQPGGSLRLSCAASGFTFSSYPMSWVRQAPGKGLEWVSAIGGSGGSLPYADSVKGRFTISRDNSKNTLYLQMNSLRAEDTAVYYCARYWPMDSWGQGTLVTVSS VL: EIVLTQSPGTLSLSPGERATLSCRASQSVSSLFLAWYQQKPGQAPRLLIYDASSRAPGIPDRFSGSGSGTDFTLTISRLEPEDFAVYYCQQYSAWPLTFGQGTKVEIK | 1.51e+07
A02_Rd4_6nM_C01 (antibody, V domains shown, IgG) VH: EVQLLESGGGLVQPGGSLRLSCAASGFTFSSYAMNWVRQAPGKGLEWVSAITASGGSTYYADSVKGRFTISRDNSKNTLYLQMNSLRAEDTAVYYCARYWPMSLWGQGTLVTVSS VL: EIVLTQSPGTLSLSPGERATLSCRASQSVSAYYLAWYQQKPGQAPRLLMYDASIRATGIPDRFSGSGSGTDFTLTISRLEPEDFAVYYCQQYERWPLTFGQGTKVEIK | 3.11e+06

Need kon of COMBO_Rd4_0.6nM_C20 (antibody, V domains shown, IgG) VH: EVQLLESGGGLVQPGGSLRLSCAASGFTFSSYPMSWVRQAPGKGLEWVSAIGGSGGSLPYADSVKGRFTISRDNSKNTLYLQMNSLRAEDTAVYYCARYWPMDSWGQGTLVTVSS VL: EIVLTQSPGTLSLSPGERATLSCRASQSVSYLYLAWYQQKPGQAPRLLMYDASIRATGIPDRFSGSGSGTDFTLTISRLEPEDFAVYYCQQYMEWPLTFGQGTKVEIK , thanks. 7.65e+06
